Reference for the values: ChEMBL document CHEMBL1143523

- Test system: Saccharomyces cerevisiae
- ASSAY_PROTOCOL: Zone of inhibition for Saccharomyces cerevisiae IFO 0203 at 0.125 ug/disc by conventional paper disk method
- Assay type: functional
MEASURED_PROPERTY: zone of inhibition at 0.125 µg/disc (mm)
Numbers only, in mm.

Provide zone of inhibition at 0.125 µg/disc for all items below, preserving their order.
1. CCCC[C@H]1C(=O)O[C@H](C)[C@H](NC(=O)c2cccc(NC=O)c2O)C(=O)O[C@@H](C)[C@@H]1OC(=O)CC(C)C [ANTIMYCIN A3]
2. CCOC(=O)COc1c(OC)ccnc1C(=O)N[C@H]1COC(=O)[C@H](Cc2ccccc2)[C@@H](OC(=O)C(C)C)[C@H](C)OC1=O
3. COc1ccnc(C(=O)N[C@H]2COC(=O)[C@H](Cc3ccc(NC=O)cc3)[C@@H](OC(=O)C(C)C)[C@H](C)OC2=O)c1O

Result block:
[19, 0, 0]
